system: TK-10 renal; assay: NCI tumour cell line growth inhibition, 48 h
Recorded measurements of TGI, one per entry
Form entry: value (µM) — number only.

The examples below pair each entry with its known result.
[[record]]
given_smiles = "Cc1ccc2oc3c(c(Br)c(Br)n3C)c(=O)c2c1"
experimental_value = 38.9

[[record]]
given_smiles = "O=C(Nc1ccccc1O)c1ccc(NS(=O)(=O)c2cccc3cccnc23)cc1"
experimental_value = 3.45

[[record]]
given_smiles = "COc1cc(/C=C/c2cc(/C=C/c3ccc(O)c(OC)c3)n(C(=O)Nc3ccc(Cl)cc3)n2)ccc1O"
experimental_value = 6.18


Input: Tell us which TGI value is on record for c1ccc2c(c1)ccn1ccc3c4ccccc4nc-3c21
Output: 4.34

====

system: A498 renal; test: NCI tumour cell line growth inhibition, 48 h; in the data active means GI50 below about 0.43 µM; inactive means the rest
I would appreciate it if you answered using one of these outcomes: 1 (yes) (active), 0 (no) (inactive)

Worked examples, 5 molecules total:
[[record]]
molecule = "Cc1cn(-c2ccc(S(C)(=O)=O)cc2)c(-c2ccc(Cl)cc2)n1"
qualitative_label = "0 (no)"

[[record]]
molecule = "CNS(=O)(=O)OCC1OC(n2cnc3c(N)ncnc32)C(O)C1O (stereo not drawn)"
qualitative_label = "0 (no)"

[[record]]
molecule = "NC(=S)N=Nc1c(O)c2ccccc2c2ccccc12"
qualitative_label = "0 (no)"

[[record]]
molecule = "CCS(=O)(=O)c1ccc(OC)c(Nc2ncc(-c3ccccc3Cl)o2)c1"
qualitative_label = "0 (no)"

[[record]]
molecule = "COc1ccccc1NS(=O)(=O)c1ccc2oc(SC(C)C)nc2c1"
qualitative_label = "0 (no)"


Note: attention shifts to another entry.
Input: I would be grateful if you could indicate the recorded call for Nc1ccccc1C#C/C=C\C#Cc1c(F)c(F)c(F)c(F)c1F .
Output: 0 (no)

====

test system: CCRF-CEM leukemia; assay: NCI tumour cell line growth inhibition, 48 h
Recorded measurements of TGI, one per entry

[[record]]
molecule = "C=CCN(c1cc(OC)c2[nH]c(C(=O)OCC)c(C)c2c1[N+](=O)[O-])S(C)(=O)=O"
experimental_value = "> 100 µM"


Input: Provide TGI, tested on CCRF-CEM leukemia, for Cc1cc(Cl)ccc1Nc1nc(C(F)(F)F)ccc1C(=O)N/N=C/c1ccccc1Cl .
Output: 4.78 µM

Input: Provide TGI, tested on CCRF-CEM leukemia, for CCn1c2ccccc2c2ccc(C3C(C(=O)OC)=C(C)NC(C)=C3C(=O)OC)cc21 .
Output: > 100 µM

Input: Provide TGI, tested on CCRF-CEM leukemia, for COc1ccc2c3c([nH]c2c1)CCN(Cc1ccccc1)C3 .
Output: > 100 µM

Input: Provide TGI, tested on CCRF-CEM leukemia, for C=CCCCCOC1C=CC(O)C(CO)O1 (stereo not given) .
Output: > 100 µM

====

system: HS 578T breast; experiment: NCI tumour cell line growth inhibition, 48 h
Recorded measurements of GI50, one per entry

[[record]]
given_smiles = "COc1ccc(N(/C=C/C(=O)C(F)(F)F)CC(=O)c2ccc(Cl)cc2)cc1"
experimental_target = "HS 578T breast"
experimental_value = "25 µM"


Input: Tell us which GI50 value is on record for Nc1ccccc1C#C/C=C\C#Cc1c(F)c(F)c(F)c(F)c1F
Output: 32.7 µM

Input: Tell us which GI50 value is on record for C=C1C(=O)O[C@H]2[C@H]1CC/C(COC(=O)NCCc1c[nH]c3ccc(Cl)cc13)=C\CC[C@@]1(C)O[C@@H]21
Output: 3.21 µM

Input: Tell us which GI50 value is on record for Cc1ccc(-c2nc(-c3cn(C)c4ncccc34)cs2)cc1
Output: 4.71 µM

Input: Tell us which GI50 value is on record for O=C(C[P+](c1ccccc1)(c1ccccc1)c1ccccc1)C[P+](c1ccccc1)(c1ccccc1)c1ccccc1
Output: 0.581 µM

Input: Tell us which GI50 value is on record for O=C(Nc1cc(Oc2cc(F)c(NC(=O)C3(C(=O)Nc4ccc(F)cc4)CC3)cc2F)ccn1)C1CC1
Output: 2.5 µM

Input: Tell us which GI50 value is on record for CC1=C[C@H]2C[C@H](C)[C@H]3CC[C@H](C)[C@]4(C1)C(=O)C(O)=C(C)C(=O)[C@@]324
Output: 24.7 µM

Input: Tell us which GI50 value is on record for ClCc1cccc(CSc2ncnc3c2ncn3Cc2cccc(CCl)c2)c1
Output: 5.39 µM

Input: Tell us which GI50 value is on record for C#COc1cccc(Nc2ncnc3cc(NC(=O)[C@H](C)Cl)ccc23)c1
Output: 2.51 µM

Input: Tell us which GI50 value is on record for CCOC(=O)/C=C/C(=O)[C@H](CC(C)C)NC(=O)[C@H](Cc1ccccc1)NC(=O)OCc1ccccc1
Output: 10.9 µM

Input: Tell us which GI50 value is on record for Nc1nc(=O)n([C@@H]2CS[C@H](CO)O2)cc1F
Output: > 100 µM

====

tested on: CCRF-CEM leukemia; assay: NCI tumour cell line growth inhibition, 48 h
Recorded measurements of TGI, one per entry
Form entry: value (µM) — number only.

[[record]]
given_smiles = "S=C=NCCc1ccccc1"
units_text = "µM"
experimental_value = 4.25

[[record]]
given_smiles = "CCN(CC)CCn1[nH]c2c3ccc(=O)cc3sc3c(NCCN)ccc1c32"
units_text = "µM"
experimental_value = 0.719


Input: Tell us which TGI value is on record for CC(C)(C)C1=CC(=C2C=Cc3ccccc3O2)C=C(C(C)(C)C)C1=O
Output: 6.12

====

Recorded measurements of TGI, one per entry
system: DMS 273 small cell lung; test: NCI tumour cell line growth inhibition, 48 h
Form entry: value (µM) — number only.

[[record]]
compound = "CC(=O)OC1CC[C@@]2(C)C(CC[C@]3(C)C2CC=C2[C@@H]4C(C)[C@H](C)CCC4(C)CCC23C)[C@@]1(C)C(=O)O (stereo partly drawn)"
experimental_value = 46.8


Then there is this compound:
Input: Provide TGI, tested on DMS 273 small cell lung, for CN(C)CCNC(=O)c1cccc2ccc(-c3ccc(-c4ccccc4)cc3)nc12 .
Output: 3.24

====

test system: HOP-62 NSCLC; experiment: NCI tumour cell line growth inhibition, 48 h; in the data active means GI50 below about 0.43 µM; inactive means the rest
I would appreciate it if you answered using one of these outcomes: yes (1) = active, no (0) = inactive

Worked examples, 2 compounds total:
[[record]]
compound = "CCOC(=O)c1ccc2c(c1)[n+](=O)c(C(C)=O)c(C(F)(F)F)n2[O-]"
qualitative_label = "no (0)"

[[record]]
compound = "N#CN1CC[C@H](C(=O)Nc2cc3cc(C(N)=O)ccc3cn2)C1"
qualitative_label = "yes (1)"


Input: I would be grateful if you could indicate the recorded call for CCCCCCCC(=O)OCC(=O)[C@]1(O)Cc2c(O)c3c(c(O)c2[C@@H](OC2CC(N)C(O)C(C)O2)C1)C(=O)c1c(OC)cccc1C3=O (some centres undefined) .
Output: yes (1)

Input: I would be grateful if you could indicate the recorded call for CN(C)c1ccc(/C=c2/c3ccccc3n3c2c2cc(F)ccc2[n+]3C)cc1 .
Output: no (0)

Input: I would be grateful if you could indicate the recorded call for O=C(C[P+](c1ccccc1)(c1ccccc1)c1ccccc1)C[P+](c1ccccc1)(c1ccccc1)c1ccccc1 .
Output: no (0)

Input: I would be grateful if you could indicate the recorded call for O=c1oc2ccc(-c3ccc(F)cc3F)cc2c(=O)n1-c1ccc(Cl)c(C(F)(F)F)c1 .
Output: no (0)

====

tested on: SW-620 colon; assay: NCI tumour cell line growth inhibition, 48 h
reported_property: TGI

Input: Tell us which TGI value is on record for O=C(NNS(=O)(=O)c1ccccc1)c1cccnc1
Output: > 100 µM

====

test system: SF-268 CNS; experiment: NCI tumour cell line growth inhibition, 48 h; in the data active = GI50 below about 0.43 µM; inactive = the rest
I would appreciate it if you answered using one of these outcomes: active, inactive

[[record]]
compound = "CCS(=O)(=O)c1ccc(OC)c(Nc2ncc(-c3ccccc3Cl)o2)c1"
qualitative_label = "inactive"

[[record]]
compound = "COc1ccc(Nc2nc3cc(N)cc(N)c3nc2-c2ccccc2)cc1OC"
qualitative_label = "inactive"

[[record]]
compound = "O=C(c1ccccc1)n1c(-c2ccccc2)cs/c1=N\\S(=O)(=O)c1ccc(N2N=C3c4ccccc4CC3C2c2cccs2)cc1 (stereo not given)"
qualitative_label = "inactive"


Input: I would be grateful if you could indicate the recorded call for CCOC(=O)c1ccc2c(c1)[n+](=O)c(C(C)=O)c(C(F)(F)F)n2[O-] .
Output: inactive

====

Recorded measurements of TGI, one per entry
system: MALME-3M melanoma; test: NCI tumour cell line growth inhibition, 48 h

The examples below pair each entry with its known result.
[[record]]
molecule = "COc1ccc(Nc2nc3cc(N)cc(N)c3nc2-c2ccccc2)cc1OC"
experimental_value = "35.7 µM"

[[record]]
molecule = "NC(=S)N=Nc1c(O)c2ccccc2c2ccccc12"
experimental_value = "3.58 µM"

[[record]]
molecule = "COc1ccc(C2C3CCCC(C3=O)C(c3ccc(OC)cc3)N2N=O)cc1 (stereo not given)"
experimental_value = "20 µM"

[[record]]
molecule = "OC12c3ccccc3C3CCC4(OCCO4)C3C1c1ccccc12 (stereo not given)"
experimental_value = "> 100 µM"

[[record]]
molecule = "CNS(=O)(=O)OCC1OC(n2cnc3c(N)ncnc32)C(O)C1O (stereo not given)"
experimental_value = "> 100 µM"


Input: Tell us which TGI value is on record for COC(=O)/C=c1\s/c(=C\C(=O)OC)c2ccccc12
Output: > 100 µM

Input: Tell us which TGI value is on record for CC(C)(C)OC(=O)Cn1ncn(NC(=O)Cc2ccccc2)c1=O
Output: > 10 µM

Input: Tell us which TGI value is on record for CCOC(=O)C(O)(C(=O)OCC)c1cc(C(C)(C)C)c(O)c(C(C)(C)C)c1
Output: > 100 µM

Input: Tell us which TGI value is on record for C=C1C(=O)O[C@H]2[C@H]1CC/C(COC(=O)NCCc1c[nH]c3ccc(Cl)cc13)=C\CC[C@@]1(C)O[C@@H]21
Output: 3.44 µM

Input: Tell us which TGI value is on record for Cc1c(N2C(=O)/C(=C/c3ccc(N(CCC#N)CCC#N)cc3)N=C2c2ccccc2)c(=O)n(-c2ccccc2)n1C
Output: > 100 µM
